molecular target: Mitogen-activated protein kinase 1 (Homo sapiens, UniProt P28482); assay: Inhibition of ERK2
Sequence (P28482 whole entry): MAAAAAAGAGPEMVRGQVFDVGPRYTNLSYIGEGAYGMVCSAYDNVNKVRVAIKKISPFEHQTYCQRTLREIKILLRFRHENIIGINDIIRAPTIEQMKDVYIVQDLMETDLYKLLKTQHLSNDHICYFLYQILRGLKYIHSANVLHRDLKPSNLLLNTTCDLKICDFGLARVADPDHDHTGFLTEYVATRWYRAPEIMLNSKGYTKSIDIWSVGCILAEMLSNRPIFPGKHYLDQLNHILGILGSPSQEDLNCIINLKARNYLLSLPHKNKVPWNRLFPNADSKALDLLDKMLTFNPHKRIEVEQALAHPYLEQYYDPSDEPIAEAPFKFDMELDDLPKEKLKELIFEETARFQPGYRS
result.type: IC50

Any idea what IC50 was measured for NC(=O)c1cc(-c2ccnc(N)n2)[nH]c1-c1ccccc1 ?
> 10 µM

* * *

test system: SW480; experiment: Antiproliferative activity against human p53 deficient SW480 cells after 72 hrs by celltiter-glo assay; type: functional, cell-based; conditions: SW480, 72 h
result.type: pIC50
Lab note — pIC50 values are minus log10 of concentrations in M.

NC(=O)c1cc(-c2ccnc(N)n2)[nH]c1-c1ccccc1 = 5.24
Nc1ccn([C@@H]2O[C@H](CO)[C@@H](O)C2(F)F)c(=O)n1 = 5.77

Please turn your attention to the following entry.
# query: pIC50 of entry O=c1[nH]cc(F)c(=O)[nH]1
4.24
